# System name: T1, CD27 protein (His-tagged, Sino Biological Inc. 10039-H08B1) (human, UniProt P26842 20-192)
# T1 construct: bought; coated onto ELISA plates; also called human CD27; recombinant protein; not shown: His tag
# T1 sequence (looked up): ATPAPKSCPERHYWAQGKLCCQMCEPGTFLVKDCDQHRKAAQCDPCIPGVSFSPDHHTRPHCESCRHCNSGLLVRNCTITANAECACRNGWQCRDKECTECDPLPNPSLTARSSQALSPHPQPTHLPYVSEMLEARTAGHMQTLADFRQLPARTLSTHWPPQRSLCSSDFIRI
# Assay method text: ELISA on coated His-tagged CD27; also: test concentration or dose not given here
Exercise: state measured ELISA [abs. corr.] for each of the binders provided.
Quick reminder: number only, in abs. corr., skip the unit.

# binder P018.S.08.A.D01 (antibody, V domains shown, V regions on human Ig constant parts; also called AB27_137) VH: QSVEESGGRLVMPGTPLTLTCTVSGFSLSTYVMGWVRQAPGKGLECIGVIYGGGTIWYASWAKGRFTISKTSTTMDLQITSPTTEDTATYFCARDGSSSGDPGFNLWGQGTLVTVSS VL: DIVMTQTPASVSAAVGGTVTINCQASQSISNWVAWYQQKPGQPPKRLIYKASTLASGVPSRFKGSGSGTEFTLTISDLESADAATYYCQSTGSTAYGRAFGGGTEVVVR ; its ELISA [abs. corr.] = 3.42

# binder P018.S.09.A.E03 (antibody, V domains shown, V regions on human Ig constant parts; also called AB27_154) VH: QSVEESGGRLVTPGTPLTLTCTASGFSLSSYYMGWVRQAPGKGLEWIGFITSGGSGSTYYASWAKGRFTISKTSTTVDLKMTSLTTEDTATYFCARYGDSFYWALDLWGQGTLVTVSS VL: AQVLTQTPSSVSAAVGGTVTINCQSSQSVLNNDLSWYQQKPGQPPKLLIYAASTLASGVPSRFKGSGSGTQFTLTINVGQSDDAATYYCQGYFIDVNNPFGGGTEVVVK ; its ELISA [abs. corr.] = 3.27

# binder P018.S.01.A.G04 (antibody, V domains shown, V regions on human Ig constant parts; also called AB27_23) VH: QEQLVESGGGLVQPEGSLTLTCTASGVSFSNNYYISWVRQAPGKGLEWIACVYTGDDDYTYYPSWAKGRFTISKTSSTTVTLQMTSLTAADTATYFCAREILYPADTDSFDLWGPGTLVTVSS VL: AFELTQTPSSVEAAVGGTVTIKCQASESISSRLAWYQQKPGQPPKLLIYRASTLASGVPSRFKGSGSGTDFTLTISDLESADAATYYCQAYVGISSGGYIFGGGTEVVVK ; its ELISA [abs. corr.] = 3.77

# binder P018.S.04.A.C02 (antibody, V domains shown, V regions on human Ig constant parts; also called AB27_69) VH: QEQLVESGGDLVKPEGSLTLTCTASGFSFSSSYYMSWVRQAPGKGLEWIACIDTVDNYTYYASWAKGRFTISKTSSTTVSLQMTSLTAADTATYFCARERIAYNTDYFNLWGPGTLVTVSS VL: AQVLTQTPSPVSAAVGGTVTISCQSSQSLYNYNNLAWYQQKPGQPPKLLIYSVSNLASGVPSRFGGGGSGTQFTLTISDLQSADAATYYCQGYYSGAVYTFGGGTEVVVK ; its ELISA [abs. corr.] = 3.37

# binder P018.S.01.A.E03 (antibody, V domains shown, V regions on human Ig constant parts; also called AB27_15) VH: QSVEESGGRLVTPGTPLTLTCTVSGFSLSSYAMGWVRQAPGKGLQWIGILYRNDAASYANWAKGRFTISKTSTTVDLTMPSLTTEDTATYFCVRGYVNDGYYNLWGQGTLVTVSS VL: AYDMTQTPASVEVAVGGTVTIKCQASESIGYRLAWYQQKSGQPPKLLIFDASDLASGVPSRFKGSGSGKHFTLTISGVQSADAATYYCQQDYSYSIIDNSFGGGTEVVVK ; its ELISA [abs. corr.] = 3.3

# binder P018.S.03.A.G02 (antibody, V domains shown, V regions on human Ig constant parts; also called AB27_56) VH: QSLEESGGDLVKPGASLTLTCTASGFSFSSGYDMCWVRQAPGKGLEWIACIYAGSNNNTYYASWAKGRFTISKTSSTTVTLQVASLTAADTATYFCARAAGGYADYAYVMGDYFNFWGPGTLVTVSS VL: AYDMTQTPASVEVAVGGTVTIKCQASEDIYSILAWYQQKPGQRPKGLIYSASTLDSGVPLRFSGSGSGTEFTLTISGVQSDDAATYYCQQGYSSSNVDNVFGGGTEVVVK ; its ELISA [abs. corr.] = 3.44

# binder P018.S.10.A.F01 (antibody, V domains shown, V regions on human Ig constant parts; also called AB27_179) VH: QSLEESGGGLVQPEGSLTLTCTASGFSFSSSDYMCWVRQAPGKGLEWIACMYTGSVEHTYYANWAEGRFTISKTSSTTVTLQMTSLTAADTATYFCARSPTGYPDYGYGGFSLWGPGTLVTVSS VL: ALVMTQTPSSVSAAVGGTVTINCQASQNIYSNLAWYQQKSGQRPKLLIHGASNLESGVPSRFKGSGSGTEFTLTISDLESADAATYYCQSAYYSGGPDMAFGGGTEVVVK ; its ELISA [abs. corr.] = 3.31

# binder P018.S.03.A.F03 (antibody, V domains shown, V regions on human Ig constant parts; also called AB27_54) VH: QSLEESGGRLVTPGGSLTLTCTVSGIDLSSYAMGWVRQAPGKGLEYLGIIYTSNRTHYATWAKGRFTISKTSSTTVDLKATSLTTEDTATYFCGRYGRGSGGYYYGMDLWGPGTLVTVSS VL: DIVMTQTPASVEAAVGGTVTIKCQASQSGDDYCSWYQQKPGQRPKLLIYAASTLASGVPSRFRGSRSGTEYTLTISDLESADAATYYCQNYCAGSGVCLGVAFGGGTEVVVK ; its ELISA [abs. corr.] = 3.15

# binder P018.S.05.A.A02 (antibody, V domains shown, V regions on human Ig constant parts; also called AB27_80) VH: QSLEESGGRLVTPGTPLTLICTASGIDLSSYGMTWVRQAPGKGLEWIGIISTIGDTYYASWVKGRFTISKTSTTVDLKITSPTTEDTATYFCARYTNSGYAMMYYFNLWGQGTLVTVSS VL: DIVMTQTPASVEAAVGGTVTIKCQASQNIVNALAWYQQKLGQPPKLLIYVASYLASGVPSRFKGSGSGTEFTLTISDLESVDAATYYCQSYYYSSGTSYGQNAFGGGTEVVVK ; its ELISA [abs. corr.] = 3.3

# binder P018.S.06.A.C02 (antibody, V domains shown, V regions on human Ig constant parts; also called AB27_100) VH: QSVEESGGRLVTPGTPLTLTCIVSGIDLSSNAMSWVRQAPGKGLEWIGIIGFAGITYYANWAKGRFTISKTSTTVDLKITSPTTEDTATYFCARAYGDSDGLYNLWGQGTLVTVSS VL: AQVLTQTASSVSAAVGGTVTISCQSSESVYNNNWLGWFQQKPGQPPKLLIYLASTLASGVPSRFKGSGSGTQFTLTISDLESDDAATYYCQGGYSGNIFAFGGGTEVVVN ; its ELISA [abs. corr.] = 3.23

These data points were gathered from patent US20210253725A1.
